Reported viability, T/C values for a set of compounds
test system: 885724-159-R-J1-PDC complex spheroid viability; assay: Anticancer human tumor 885724-159-R-J1-PDC patient-derived pancreatic adenocarcinoma cell line growth inhibition [GQUAD]; conditions: second compound 0.0316 µM; first compound 3.16 µM; active compounds read low;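 note: spheroids exposed to agents for seven days before readout; percent of vehicle control viability where 100% = DMSO wells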

# compound, viability, T/C / %
measured = [
    ("O=C(NO)c1cnc(N2CCN(S(=O)(=O)c3ccc4ccccc4c3)CC2)nc1 + Cc1[nH]c2ccc(F)cc2c1-c1nc2c3cccnc3c3ncccc3c2[nH]1", 2.03),
    ("Cc1cccc(N(C)C(=O)C2C(O)CCN2c2nc(C)cc(C(F)(F)F)c2C#N)c1 (stereo not drawn) + Cc1cnc(CNC(=O)c2c(=O)c3ccc(N4CCCN(C)CC4)nc3n3c2sc2ccccc23)cn1", 104),
    ("C=CCn1c(=O)c2cnc(Nc3ccc(N4CCN(C)CC4)cc3)nc2n1-c1cccc(C(C)(C)O)n1 + Cc1cnc(CNC(=O)c2c(=O)c3ccc(N4CCCN(C)CC4)nc3n3c2sc2ccccc23)cn1", 78.4),
]
